Reference for the values: patent US9586961B2

Target: JAK2 (Homo sapiens)
Construct: All four purified enzymes contain only the catalytic domain; His (N)
Assay: JAK2 kinase assay (HTRF, inhibition of phosphorylation of a synthetic peptide)
Conditions: catalytic domain, His-tag; 4 μM ATP (Km); read-out: JAK2 kinase inhibitory activity (EC50)
Procedure: JAK1, JAK2, JAK3 and TYK2 Kinase Assays: Human baculovirus-expressed JAK1, 2, 3 and TYK2 were purchased from Carna Biosciences, Inc. All four purified enzymes contain only the catalytic domain. […] Inhibition of phosphorylation of a synthetic peptide was measured in an HTRF-based assay using the TK substrate-Biotin from the CisbioHTRFKinEASE TK kit. […] The HTRF signal is read using an Envision plate reader.
Measure: EC50

Look over these answered cases.
>>> measured_value("Cc1ncsc1CC(=O)N1CCN(c2ncnc3[nH]ccc23)CC2(CC2)C1")
"100 to 1000 nM"
>>> measured_value("Cc1nccnc1C(=O)N1CCN(c2ncnc3[nH]ccc23)CC2(CC2)C1")
"> 1000 nM"
>>> measured_value("Cc1noc(C)c1CC(=O)N1CCN(c2ncnc3[nH]ccc23)CC2(CC2)C1")
"100 to 1000 nM"

Query compound follows.
Q. Entry `NS(=O)(=O)c1ccc(NC(=O)C(=O)N2CCN(c3ncnc4[nH]ccc34)CC3(CC3)C2)cc1` needs its EC50 filled in; supply it.
A. < 100 nM

---

Biological target: JAK3 (Homo sapiens, UniProt P52333)
Construct: All four purified enzymes contain only the catalytic domain; His (N)
Sequence (P52333 822-1111 limits assumed): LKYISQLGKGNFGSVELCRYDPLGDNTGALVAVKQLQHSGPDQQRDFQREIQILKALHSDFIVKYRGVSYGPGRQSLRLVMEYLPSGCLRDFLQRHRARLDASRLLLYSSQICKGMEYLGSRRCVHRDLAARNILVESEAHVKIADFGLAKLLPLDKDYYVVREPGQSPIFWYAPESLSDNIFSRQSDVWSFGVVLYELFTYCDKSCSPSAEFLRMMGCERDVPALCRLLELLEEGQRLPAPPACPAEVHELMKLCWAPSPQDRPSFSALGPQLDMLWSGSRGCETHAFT
Test: JAK3 kinase assay (HTRF, inhibition of phosphorylation of a synthetic peptide)
Details: catalytic domain, His-tag; 2 μM ATP (Km); read-out: JAK3 kinase inhibitory activity (EC50)
Protocol: JAK1, JAK2, JAK3 and TYK2 Kinase Assays: Human baculovirus-expressed JAK1, 2, 3 and TYK2 were purchased from Carna Biosciences, Inc. All four purified enzymes contain only the catalytic domain. […] Inhibition of phosphorylation of a synthetic peptide was measured in an HTRF-based assay using the TK substrate-Biotin from the CisbioHTRFKinEASE TK kit. […] The HTRF signal is read using an Envision plate reader.
Measure: EC50

>>> measured_value("O=C(c1ccccc1Cl)N1CCN(c2ncnc3[nH]ccc23)CC2(CC2)C1 [Example 185]")
"> 1000 nM"

Q. Entry Cc1ccc(CC(=O)N2CCN(c3ncnc4[nH]ccc34)CC3(CC3)C2)cc1 [Example 263] needs its EC50 filled in; supply it.
A. 100 to 1000 nM

Q. Entry O=C(CC1CCCC1)N1CCCN(c2ncnc3[nH]ccc23)CC12CC2 [Example 92] needs its EC50 filled in; supply it.
A. 100 to 1000 nM

Q. Entry CCCCC(=O)Nc1nc(N2CCCN(Cc3ccccc3)C3(CC3)C2)c2cc[nH]c2n1 [Example 283] needs its EC50 filled in; supply it.
A. > 1000 nM

Q. Entry N#Cc1cccc(CCC(=O)N2CCN(c3ncnc4[nH]ccc34)CC3(CC3)C2)c1 [Example 116] needs its EC50 filled in; supply it.
A. 100 to 1000 nM

Q. Entry N#Cc1cccc(C(=O)N2CCN(c3ncnc4[nH]ccc34)CC3(CC3)C2)c1 [Example 3] needs its EC50 filled in; supply it.
A. > 1000 nM

Q. Entry O=C(c1cn[nH]c1)N1CCN(c2ncnc3[nH]ccc23)CC2(CC2)C1 [Example 157] needs its EC50 filled in; supply it.
A. 100 to 1000 nM

Q. Entry O=C(c1cccc(O)n1)N1CCN(c2ncnc3[nH]ccc23)CC2(CC2)C1 [Example 163] needs its EC50 filled in; supply it.
A. > 1000 nM

Q. Entry CC(C)(C#N)C(=O)N1CCN(c2ncnc3[nH]ccc23)CC2(CC2)C1 [Example 11] needs its EC50 filled in; supply it.
A. 100 to 1000 nM

Q. Entry O=C(Cc1ccccc1)N1CCN(c2ncnc3[nH]ccc23)CC2(CC2)C1 [Example 259] needs its EC50 filled in; supply it.
A. 100 to 1000 nM

Q. Entry Cc1nocc1C(=O)N1CCCN(c2ncnc3[nH]ccc23)CC12CC2 [Example 245] needs its EC50 filled in; supply it.
A. > 1000 nM

Q. Entry O=C(c1cc(O)[nH]n1)N1CCCN(c2ncnc3[nH]ccc23)CC12CC2 [Example 212] needs its EC50 filled in; supply it.
A. 100 to 1000 nM

Q. Entry N#Cc1ccc(C(=O)N2CCCN(c3ncnc4[nH]ccc34)CC23CC3)s1 [Example 120] needs its EC50 filled in; supply it.
A. < 100 nM

Q. Entry O=C(c1ccon1)N1CCN(c2ncnc3[nH]ccc23)CC2(CC2)C1 [Example 152] needs its EC50 filled in; supply it.
A. 100 to 1000 nM

Q. Entry O=C(c1ccc(F)cc1)N1CCN(c2ncnc3[nH]ccc23)CC2(CC2)C1 [Example 113] needs its EC50 filled in; supply it.
A. 100 to 1000 nM

Q. Entry N#C[C@H]1CCCN1C(=O)N1CCN(c2ncnc3[nH]ccc23)CC2(CC2)C1 [Example 221] needs its EC50 filled in; supply it.
A. 100 to 1000 nM

Q. Entry Cc1sc(C(=O)N2CCN(c3ncnc4[nH]ccc34)CC3(CC3)C2)cc1S(N)(=O)=O [Example 24] needs its EC50 filled in; supply it.
A. < 100 nM

Q. Entry Cc1nocc1C(=O)N1CCN(c2ncnc3[nH]ccc23)CC2(CC2)C1 [Example 244] needs its EC50 filled in; supply it.
A. 100 to 1000 nM

---

Below, each entry is listed with its recorded EC50.
Molecular target: JAK2 (Homo sapiens, UniProt O60674)
Construct: All four purified enzymes contain only the catalytic domain; His (N)
Sequence (O60674 849-1124 limits assumed): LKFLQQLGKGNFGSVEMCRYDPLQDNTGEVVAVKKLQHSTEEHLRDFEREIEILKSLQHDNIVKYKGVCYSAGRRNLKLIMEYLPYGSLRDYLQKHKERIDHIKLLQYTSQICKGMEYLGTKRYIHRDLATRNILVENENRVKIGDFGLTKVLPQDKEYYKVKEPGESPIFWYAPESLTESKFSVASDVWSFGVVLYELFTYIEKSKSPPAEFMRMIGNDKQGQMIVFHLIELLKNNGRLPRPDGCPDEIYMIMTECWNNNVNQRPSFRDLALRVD
Test: JAK2 kinase assay (HTRF, inhibition of phosphorylation of a synthetic peptide)
Conditions: catalytic domain, His-tag; 4 μM ATP (Km); read-out: JAK2 kinase inhibitory activity (EC50)

>>> measured_value("O=C(c1ccns1)N1CCN(c2ncnc3[nH]ccc23)CC2(CC2)C1")
"100 to 1000 nM"
>>> measured_value("CS(=O)(=O)Nc1ccc(C(=O)N2CCN(c3ncnc4[nH]ccc34)CC3(CC3)C2)cc1")
"100 to 1000 nM"
>>> measured_value("Cc1cc(CC(=O)N2CCN(c3ncnc4[nH]ccc34)CC3(CC3)C2)n[nH]1")
"< 100 nM"
>>> measured_value("Cc1oncc1C(=O)N1CCN(c2ncnc3[nH]ccc23)CC2(CC2)C1")
"100 to 1000 nM"

Query compound follows.
Q. Entry `N#Cc1csc(C(=O)N2CCN(c3ncnc4[nH]ccc34)CC3(CC3)C2)c1` needs its EC50 filled in; supply it.
A. < 100 nM

---

Biological target: JAK1 (Homo sapiens)
Construct: JAK1 (aa 850-1154) and TYK2 (aa 871-1187) are expressed with an N-terminally fused GST-tag; GST (N)
Test: JAK1 kinase assay (HTRF, inhibition of phosphorylation of a synthetic peptide)
Conditions: catalytic domain aa 850-1154, GST-tag; 7 μM ATP (Km); read-out: JAK1 kinase inhibitory activity (EC50)
Method: JAK1, JAK2, JAK3 and TYK2 Kinase Assays: Human baculovirus-expressed JAK1, 2, 3 and TYK2 were purchased from Carna Biosciences, Inc. All four purified enzymes contain only the catalytic domain. […] Inhibition of phosphorylation of a synthetic peptide was measured in an HTRF-based assay using the TK substrate-Biotin from the CisbioHTRFKinEASE TK kit. […] The HTRF signal is read using an Envision plate reader.
Measure: EC50

Look over these answered cases.
>>> measured_value("Cc1ccc(CC(=O)N2CCN(c3ncnc4[nH]ccc34)CC3(CC3)C2)cc1")
"< 100 nM"
>>> measured_value("O=C(c1ccnc(O)c1)N1CCN(c2ncnc3[nH]ccc23)CC2(CC2)C1")
"100 to 1000 nM"
>>> measured_value("Cc1nonc1CC(=O)N1CCN(c2ncnc3[nH]ccc23)CC2(CC2)C1")
"< 100 nM"

Query compound follows.
Q. Find the measured EC50 of `N#Cc1ccc(C(=O)N2CCN(c3ncnc4[nH]ccc34)CC3(CC3)C2)cc1` with JAK1 (Homo sapiens) as test system.
A. 100 to 1000 nM

---

Target: JAK1 (Homo sapiens, UniProt P23458)
Construct: JAK1 (aa 850-1154) and TYK2 (aa 871-1187) are expressed with an N-terminally fused GST-tag; GST (N)
Sequence (P23458 850-1154): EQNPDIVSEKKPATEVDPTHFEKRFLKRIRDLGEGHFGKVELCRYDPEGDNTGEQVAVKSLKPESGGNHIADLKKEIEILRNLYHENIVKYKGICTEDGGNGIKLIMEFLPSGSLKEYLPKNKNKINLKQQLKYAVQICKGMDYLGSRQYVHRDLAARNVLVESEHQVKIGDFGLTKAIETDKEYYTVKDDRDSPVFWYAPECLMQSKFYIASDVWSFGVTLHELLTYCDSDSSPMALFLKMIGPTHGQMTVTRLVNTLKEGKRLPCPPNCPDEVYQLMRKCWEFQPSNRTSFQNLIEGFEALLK
Assay: JAK1 kinase assay (HTRF, inhibition of phosphorylation of a synthetic peptide)
Settings: catalytic domain aa 850-1154, GST-tag; 7 μM ATP (Km); read-out: JAK1 kinase inhibitory activity (EC50)
Measure: EC50

>>> measured_value("NS(=O)(=O)c1ccc(OCC(=O)N2CCN(c3ncnc4[nH]ccc34)CC3(CC3)C2)cc1")
"< 100 nM"

Q. Entry `CN(C)c1ccc(CC(=O)N2CCN(c3ncnc4[nH]ccc34)CC3(CC3)C2)cc1` needs its EC50 filled in; supply it.
A. 100 to 1000 nM

Q. Entry `N#Cc1ccc(/C=C/C(=O)N2CCN(c3ncnc4[nH]ccc34)CC3(CC3)C2)cc1` needs its EC50 filled in; supply it.
A. 100 to 1000 nM

Q. Entry CCCC1=NOC(C(=O)N2CCCN(c3ncnc4[nH]ccc34)CC23CC3)C1 (centres unmarked) needs its EC50 filled in; supply it.
A. 100 to 1000 nM

Q. Entry `NS(=O)(=O)c1ccc(CC(=O)N2CCN(c3ncnc4[nH]ccc34)CC3(CC3)C2)cc1` needs its EC50 filled in; supply it.
A. < 100 nM

Q. Entry `Cc1cc(C(=O)N2CCCN(c3ncnc4[nH]ccc34)CC23CC3)n(C)n1` needs its EC50 filled in; supply it.
A. 100 to 1000 nM

Q. Entry `c1ccc(CN2CCCN(c3ncnc4[nH]ccc34)CC23CC3)cc1` needs its EC50 filled in; supply it.
A. > 1000 nM

Q. Entry `N#Cc1ccc(CCC(=O)N2CCN(c3ncnc4[nH]ccc34)CC3(CC3)C2)cc1` needs its EC50 filled in; supply it.
A. < 100 nM

Q. Entry `NS(=O)(=O)c1ccc(CCC(=O)N2CCN(c3ncnc4[nH]ccc34)CC3(CC3)C2)cc1` needs its EC50 filled in; supply it.
A. < 100 nM

Q. Entry `CC(C)(C#N)C(=O)N1CCN(c2ncnc3[nH]ccc23)CC2(CC2)C1` needs its EC50 filled in; supply it.
A. > 1000 nM

Q. Entry `CN(C1CCCCC1)S(=O)(=O)N1CCN(c2ncnc3[nH]ccc23)CC2(CC2)C1` needs its EC50 filled in; supply it.
A. 100 to 1000 nM
